- measurementNotes: Bioavailability in Wistar Han rat at 5 mg/kg, id measured upto 24 hrs by LC-MS/MS analysis
- Format: ADME, organism-based
- conditions: in vivo
The following molecules are shown together with reported bioavailability values.
Return type: number; implicit unit %.

The following molecules have reported results that may help.
smilesNotation	measuredProperty	numericReadout
COc1ccc(C[C@@H]2NC(=O)[C@H]([C@@H](C)O)NC(=O)[C@@H]3[C@@H]4CCN3C(=O)[C@@H]3Cc5cn(c6ccc(F)cc56)Cc5cn(nn5)-c5cc(cc(c5)CSCCC(=O)N[C@@H](CN)C(=O)N[C@H](C)C(=O)N[C@@H](Cc5cccc(c5)C/C=C/CO4)C(=O)N3)CSCCNC(=O)[C@]3(C)CCCN3C2=O)cc1	bioavailability	0.45
COc1ccc(C[C@@H]2NC(=O)[C@H]([C@@H](C)O)NC(=O)[C@@H]3[C@@H]4CCN3C(=O)[C@@H]3Cc5cn(c6ccc(F)cc56)Cc5cn(nn5)-c5cc(cc(c5)CSCCC(=O)N[C@@H](CNC(=O)CCOCCOCCN)C(=O)N[C@H](C)C(=O)N[C@@H](Cc5cccc(c5)C/C=C/CO4)C(=O)N3)CSCCNC(=O)[C@]3(C)CCCN3C2=O)cc1	bioavailability	1

Please examine the following record next.
Query :: Provide one value: measured bioavailability of `COc1ccc(C[C@@H]2NC(=O)[C@H]([C@@H](C)O)NC(=O)[C@@H]3[C@@H]4CCN3C(=O)[C@@H]3Cc5cn(c6ccc(F)cc56)Cc5cn(nn5)-c5cc(cc(c5)CSCCC(=O)N[C@@H](CNC(=O)CCOCCOCC[N+](C)(C)C)C(=O)N[C@H](C)C(=O)N[C@@H](Cc5cccc(c5)C/C=C/CO4)C(=O)N3)CSCCNC(=O)[C@]3(C)CCCN3C2=O)cc1`
Result :: 2.7
